- System: HMG-CoA reductase (Enterococcus faecalis, mvaE)
- test_summary: class II HMG-CoA reductase enzyme inhibition – biochemical, Enterococcus faecalis, primary screen (AID 1066);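 note: enzyme runs in reverse so mevalonate oxidation gives rising NADPH absorbance; 0% = complete reaction with DMSO and 100% = background rate lacking mevalonate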
- test_conditions: purified E. faecalis HMGR, NADPH absorbance 340 nm kinetic; at 10 µM; active compounds read high
Hit rate of the full screen: of about 190,000 compounds, about 790 (0.42%) were called active. The entries come from a sample that favours actives as a whole.
recorded_metric: inhibition (%)

| compound | study_target | recorded_metric | number |
| --- | --- | --- | --- |
| CCN(C(=O)COc1cccnc1[N+](=O)[O-])C1CCS(=O)(=O)C1 (centres undefined) | HMG-CoA reductase (Enterococcus faecalis, mvaE) | inhibition | 1.64 |
| CC(O)c1cccc(NC(=O)Cc2cccc3ccccc23)c1 (centres undefined) | HMG-CoA reductase (Enterococcus faecalis, mvaE) | inhibition | -6.15 |
| COc1cccc(Cn2cnc3c([N+](=O)[O-])c(C)c(C)cc32)c1 | HMG-CoA reductase (Enterococcus faecalis, mvaE) | inhibition | -3.58 |
| Cc1ccc(NC(=O)CN2CCC(C(N)=O)CC2)cc1[N+](=O)[O-] | HMG-CoA reductase (Enterococcus faecalis, mvaE) | inhibition | -7.59 |

----------
Recorded measurements of inhibition, one per entry
- Test system: HMG-CoA reductase (Enterococcus faecalis, mvaE)
- test_summary: class II HMG-CoA reductase enzyme inhibition – biochemical, Enterococcus faecalis, primary screen (AID 1066);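 note: enzyme runs in reverse so mevalonate oxidation gives rising NADPH absorbance; 0% = complete reaction with DMSO and 100% = background rate lacking mevalonate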
- test_conditions: purified E. faecalis HMGR, NADPH absorbance 340 nm kinetic; at 10 µM; active compounds read high
The whole screen tested about 190,000 compounds, of which about 790 (0.42%) were called active. The sample as a whole holds a higher share of actives than the screen did.

| molecule | readout_units | inhibition |
| --- | --- | --- |
| COc1ccc(C(=O)Nc2ccccc2C(=O)N/N=C/c2ccccc2OC)cc1 | % | -0.76 |
| COC(=O)c1ccc(/C=N/N2C(C)CCCC2C)cc1 (stereo unspecified) | % | -1.41 |
| Cc1[nH][nH]c(=O)c1C(c1ccc2c(c1)OCO2)c1c(C)[nH][nH]c1=O | % | 4.7 |
| COc1ccccc1C(=O)NNC(=O)c1ccc(NC(=O)c2ccccc2)cc1 | % | 15.3 |
| O=C1Oc2ccccc2C(=O)/C1=C/c1ccccc1O | % | -4.42 |
| N=C1C(c2nc3ccccc3[nH]2)=C(O)CN1NC(=O)c1c[nH]c2ccccc12 | % | 1.51 |
| Cc1[nH][nH]c(=O)c1C(c1ccc(-c2ccc(Cl)cc2)o1)c1c(C)[nH][nH]c1=O | % | 11.6 |
| O=C(Nc1cccnc1)c1ccc(Cl)cc1[N+](=O)[O-] | % | -3.45 |
| CCN(CC)CCNc1nc(-c2ccc(OC(F)F)cc2)c(C)s1 | % | -4.92 |
| CN(Cc1ccccn1)Cc1nc(-c2ccc(Cl)cc2)no1 | % | -4.55 |
| CCOC(=O)CNC(=O)CSc1ccc2nnc(-c3cccnc3)n2n1 | % | -1.15 |

----------
- Tested on: HMG-CoA reductase (Enterococcus faecalis, mvaE)
- test_summary: class II HMG-CoA reductase enzyme inhibition – biochemical, Enterococcus faecalis, primary screen (AID 1066);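 note: enzyme runs in reverse so mevalonate oxidation gives rising NADPH absorbance; 0% = complete reaction with DMSO and 100% = background rate lacking mevalonate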
- test_conditions: purified E. faecalis HMGR, NADPH absorbance 340 nm kinetic; at 10 µM
In all, about 190,000 compounds went through this assay and about 790 (0.42%) were called active.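 Rule for the calls: active = inhibition above a set limit, the median over all tested compounds plus 3 SD (cut at about 9.5% in these data); inconclusive = no clear call, values can overlap the other calls; inactive = the rest.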 The list comes from a sample in which actives are over-represented; it also holds close analogues and randomly drawn compounds.
Classes used: y (active), n (inactive)

| molecule | group |
| --- | --- |
| COc1cccc(CC2(CO)CCN(Cc3cnc(-c4cccc(C)c4)nc3)CC2)c1 | y |
| Cc1ncc([N+](=O)[O-])n1CCOC(=O)c1ccc(Br)cc1 | y |
| COc1ccc(C(=O)NC2CCN(C(=S)NCCc3ccccc3)CC2)cc1 | y |
| O=C1CCN(C(=S)NCCc2ccccc2)CC1 | n |
| COC(=O)c1cc(NC(=O)c2nn(C)c(=O)c3ccccc23)cc(C(=O)OC)c1 | n |
| CC(=O)Nc1ccc(NC(=O)C(C)n2c3ccccc3c3nc(=O)cc(C)n32)cc1 (stereo unspecified) | n |
| COC(=O)c1ccc(-n2cnc3ccccc32)nc1 | n |
| Cc1nn(CCOc2ccc(Br)cc2)c(C)c1[N+](=O)[O-] | n |
| COc1ccc(CC2(CO)CCN(Cc3cnn(C)c3)CC2)cc1 | n |
| N/C(=N\OC(=O)COc1ccc([N+](=O)[O-])cc1)c1ccc(Br)cc1 | n |
| CCOC(=O)C1CCN(C(=O)/C=C/c2cc(OC)c(OC)c(OC)c2)CC1 | n |

Values were extracted from PubChem BioAssay AID1066.
